Task for the reader: assign each of the following molecules its reported percent activity remaining in the presence of inhibitor.
Tested on: Oo-gal-GP
ASSAY TEXT: Inhibitor sensitivity of protease activity
Assay type: biochemical, O.ostertagi
TEST CONDITIONS: means of 2 observations
Square brackets hold non-standard residues; d marks the D form. Peptide text beside a SMILES is read from it. * marks the point of attachment. Sta = CC(C)C[C@H](N)[C@@H](O)CC(=O)O; Isovaleryl = CC(C)CC(=O)*
The reply should contain only the number, in %.

**Q:** Observed percent activity remaining in the presence of inhibitor on Oo-gal-GP for CC(C)CC(=O)N[C@H](C(=O)N[C@H](C(=O)N[C@@H](CC(C)C)[C@@H](O)CC(=O)N[C@@H](C)C(=O)N[C@@H](CC(C)C)[C@@H](O)CC(=O)O)C(C)C)C(C)C [Pepstatin, pepstatin] (Isovaleryl-VV[Sta]A[Sta]-OH) , please.
**A:** 0

**Q:** Observed percent activity remaining in the presence of inhibitor on Oo-gal-GP for `c1cnc2c(c1)ccc1cccnc12` , please.
**A:** 99

**Q:** Observed percent activity remaining in the presence of inhibitor on Oo-gal-GP for `CC(C)C[C@H](NC(=O)[C@H]1O[C@@H]1C(=O)O)C(=O)NCCCCN=C(N)N` , please.
**A:** 101

**Q:** Observed percent activity remaining in the presence of inhibitor on Oo-gal-GP for `O=S(=O)(F)Cc1ccccc1` , please.
**A:** 84

* * *

Test system: H-gal-GP
ASSAY TEXT: Azocasein proteolysis by H-gal-GP at pH 7 with a panel of proteinase inhibitors (neutral endopeptidase-like activity)
Assay type: biochemical, H.contortus
TEST CONDITIONS: first analysis, inhibitor 1mM, 0.1M phosphate buffer, overnight at 37°C
Square brackets hold non-standard residues; d marks the D form. Peptide text beside a SMILES is read from it. * marks the point of attachment. Sta = CC(C)C[C@H](N)[C@@H](O)CC(=O)O; Isovaleryl = CC(C)CC(=O)*
Task for the reader: assign each of the following molecules its reported % activity remaining.
The reply should contain only the number, in %.

**Q:** Observed % activity remaining on H-gal-GP for O=C([O-])c1cc[c]([Hg][OH])cc1 [4-hydroxymercuribenzoate] , please.
**A:** 88

**Q:** Observed % activity remaining on H-gal-GP for `N[C@@H](CCC(=O)N[C@@H](CS)C(=O)NCC(=O)O)C(=O)O` , please.
**A:** 87

**Q:** Observed % activity remaining on H-gal-GP for `c1cnc2c(c1)ccc1cccnc12` , please.
**A:** 26

**Q:** Observed % activity remaining on H-gal-GP for CC(C)CC(=O)N[C@H](C(=O)N[C@H](C(=O)N[C@@H](CC(C)C)[C@@H](O)CC(=O)N[C@@H](C)C(=O)N[C@@H](CC(C)C)[C@@H](O)CC(=O)O)C(C)C)C(C)C [Pepstatin, pepstatin] (Isovaleryl-VV[Sta]A[Sta]-OH) , please.
**A:** 75

**Q:** Observed % activity remaining on H-gal-GP for O[C@H](CS)[C@H](O)CS (racemic) , please.
**A:** 48

**Q:** Observed % activity remaining on H-gal-GP for `O=C(O)CN(CCN(CC(=O)O)CC(=O)O)CC(=O)O` , please.
**A:** 25

**Q:** Observed % activity remaining on H-gal-GP for CCN1C(=O)C=CC1=O [N-ethylmaleimide] , please.
**A:** 74
